Collected IC50 (neutralization) values appear next to each entry.
Target: HIV-1 Env of isolate 92UG114 (subtype D) (HIV-1)
Experiment: cell-based or functional assay

Binder	Units	IC50 (neutralization)
PGT-135 (antibody, V domains shown) VH: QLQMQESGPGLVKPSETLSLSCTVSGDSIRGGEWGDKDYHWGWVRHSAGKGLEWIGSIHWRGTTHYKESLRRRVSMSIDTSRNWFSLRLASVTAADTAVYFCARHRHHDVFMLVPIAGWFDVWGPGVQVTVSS VL: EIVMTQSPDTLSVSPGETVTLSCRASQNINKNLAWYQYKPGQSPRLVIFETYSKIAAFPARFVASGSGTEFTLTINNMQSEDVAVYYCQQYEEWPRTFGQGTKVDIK	µg/mL	1.29
PGT-126 (antibody, V domains shown) VH: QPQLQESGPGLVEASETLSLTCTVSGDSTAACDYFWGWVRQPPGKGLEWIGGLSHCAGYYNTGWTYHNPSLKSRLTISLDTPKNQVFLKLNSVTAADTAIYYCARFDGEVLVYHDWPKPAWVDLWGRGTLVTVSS VL: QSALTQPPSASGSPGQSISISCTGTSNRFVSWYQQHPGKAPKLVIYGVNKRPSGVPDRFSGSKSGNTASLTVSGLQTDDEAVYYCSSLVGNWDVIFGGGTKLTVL	µg/mL	0.038
PGT-125 (antibody, V domains shown) VH: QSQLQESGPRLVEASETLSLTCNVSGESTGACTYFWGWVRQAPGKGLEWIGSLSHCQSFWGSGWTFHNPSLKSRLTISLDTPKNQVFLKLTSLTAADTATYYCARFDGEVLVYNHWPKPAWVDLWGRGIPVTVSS VL: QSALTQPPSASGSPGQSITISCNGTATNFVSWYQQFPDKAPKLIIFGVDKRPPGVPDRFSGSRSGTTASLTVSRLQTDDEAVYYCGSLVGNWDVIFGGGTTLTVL	µg/mL	0.349
